Origin of values: patent US20190062438A1

- subject-of-test: T1, human CD131 (human, UniProt P32927 17-897)
- T1 sequence: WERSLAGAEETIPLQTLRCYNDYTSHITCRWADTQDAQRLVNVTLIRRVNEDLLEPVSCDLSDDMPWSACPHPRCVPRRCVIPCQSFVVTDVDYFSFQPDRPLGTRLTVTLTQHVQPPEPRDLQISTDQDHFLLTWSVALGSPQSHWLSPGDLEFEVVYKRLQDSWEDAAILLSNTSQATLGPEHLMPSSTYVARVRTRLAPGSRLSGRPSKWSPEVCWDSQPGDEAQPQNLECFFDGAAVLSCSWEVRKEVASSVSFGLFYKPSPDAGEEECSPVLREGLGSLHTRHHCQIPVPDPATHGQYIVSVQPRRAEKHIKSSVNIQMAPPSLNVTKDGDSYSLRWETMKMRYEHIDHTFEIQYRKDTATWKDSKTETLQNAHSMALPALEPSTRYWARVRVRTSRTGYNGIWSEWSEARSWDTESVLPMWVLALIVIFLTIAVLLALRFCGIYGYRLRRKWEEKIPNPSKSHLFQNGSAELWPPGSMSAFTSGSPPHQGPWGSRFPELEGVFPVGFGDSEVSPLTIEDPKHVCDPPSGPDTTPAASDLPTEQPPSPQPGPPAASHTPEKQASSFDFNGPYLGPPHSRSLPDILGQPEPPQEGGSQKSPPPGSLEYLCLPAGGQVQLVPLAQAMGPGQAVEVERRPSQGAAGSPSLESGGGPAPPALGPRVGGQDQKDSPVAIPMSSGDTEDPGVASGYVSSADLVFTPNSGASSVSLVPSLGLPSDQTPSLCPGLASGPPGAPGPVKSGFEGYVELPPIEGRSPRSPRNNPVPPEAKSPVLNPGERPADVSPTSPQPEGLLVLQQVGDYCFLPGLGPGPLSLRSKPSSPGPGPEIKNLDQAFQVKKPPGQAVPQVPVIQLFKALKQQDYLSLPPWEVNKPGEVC
- assay-explanation: cell-based or functional assay
Grouping rule (IC50 GM-CSF, TF-1 proliferation): interval 1 = under 0.5 nM, interval 2 = from 0.5 nM up to 1 nM, interval 3 = 1 nM and over

- binder: "9A2-VR39.11 (antibody, V domains shown) VH: EVQLLESGGGLVQPGGSLRLSCAASGFTFQEFHTIWVRQAPGKGLEWVSSINGRGRVTYYADSVKGRFTISRDNSKNTLYLQMNSLRAEDTAVYYCARFYDSFFDIWGQGTMVTVSS VL: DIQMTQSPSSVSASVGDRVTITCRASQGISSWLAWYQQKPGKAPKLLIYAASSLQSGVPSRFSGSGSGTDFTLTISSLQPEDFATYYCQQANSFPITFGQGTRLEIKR"
  answer-label: "interval 3"
- binder: "9A2-VR24.98 (antibody, V domains shown) VH: EVQLLESGGGLVQPGGSLRLSCAASGFTFPWYRVHWVRQAPGKGLEWVSSIRSSGGFPHYNSVVKGRFTISRDNSKNTLYLQMNSLRAEDTAVYYCARFYDSFFDIWGQGTMVTVSS VL: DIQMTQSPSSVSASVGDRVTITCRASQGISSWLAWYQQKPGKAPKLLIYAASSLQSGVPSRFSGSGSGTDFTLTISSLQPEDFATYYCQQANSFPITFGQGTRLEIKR"
  answer-label: "interval 1"
- binder: "9A2-VR39.19 (antibody, V domains shown) VH: EVQLLESGGGLVQPGGSLRLSCAASGFTFQYFNVIWVRQAPGKGLEWVSSINGRGRVTYYADSVKGRFTISRDNSKNTLYLQMNSLRAEDTAVYYCARFYDSFFDIWGQGTMVTVSS VL: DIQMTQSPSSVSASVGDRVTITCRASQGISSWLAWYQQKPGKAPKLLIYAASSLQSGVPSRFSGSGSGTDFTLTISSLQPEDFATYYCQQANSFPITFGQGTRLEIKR"
  answer-label: "interval 3"
- binder: "9A2-VR39.02 (antibody, V domains shown) VH: EVQLLESGGGLVQPGGSLRLSCAASGFTFYWYHMIWVRQAPGKGLEWVSSINGRGRVTYYADSVKGRFTISRDNSKNTLYLQMNSLRAEDTAVYYCARFYDSFFDIWGQGTMVTVSS VL: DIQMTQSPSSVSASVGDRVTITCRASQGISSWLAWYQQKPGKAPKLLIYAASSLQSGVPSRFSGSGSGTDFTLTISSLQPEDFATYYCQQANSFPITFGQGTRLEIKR"
  answer-label: "interval 1"
- binder: "9A2-VR39.174 (antibody, V domains shown) VH: EVQLLESGGGLVQPGGSLRLSCAASGFTFSHYHMLWVRQAPGKGLEWVSSINGRGRVTYYARDHKKRFTISRDNSKNTLYLQMNSLRAEDTAVYYCARFYDSFFDIWGQGTMVTVSS VL: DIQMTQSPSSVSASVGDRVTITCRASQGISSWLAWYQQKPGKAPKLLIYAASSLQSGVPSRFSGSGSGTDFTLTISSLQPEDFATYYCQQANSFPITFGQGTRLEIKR"
  answer-label: "interval 2"
- binder: "9A2-VR39.77 (antibody, V domains shown) VH: EVQLLESGGGLVQPGGSLRLSCAASGFTFSHYHMLWVRQAPGKGLEWVSSINGRGRVTYYQWPMNKRFTISRDNSKNTLYLQMNSLRAEDTAVYYCARFYDSFFDIWGQGTMVTVSS VL: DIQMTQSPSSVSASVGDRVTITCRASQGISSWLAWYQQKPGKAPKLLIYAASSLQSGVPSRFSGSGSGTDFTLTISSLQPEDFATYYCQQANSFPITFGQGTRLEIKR"
  answer-label: "interval 3"
